self-cleavage kobs at 10000 uM GlcN6P: recorded values
B1: glmS ribozyme (parent)
chain: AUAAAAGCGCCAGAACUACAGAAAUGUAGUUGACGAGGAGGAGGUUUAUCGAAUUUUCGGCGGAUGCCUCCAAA

- Variants of: B1
- EXPERIMENT_NOTES: self-cleavage kobs at 10000 uM GlcN6P; higher = faster cleavage; RNA array
- ASSAY_SETUP: with glucosamine-6-phosphate
Variants at the floor of the assay were thinned out.
The reply should be a number in s⁻¹, with the unit left off.

In the examples that follow, each entry is paired with its recorded self-cleavage kobs at 10000 uM GlcN6P.
INSERT INTO results (variant_notation, test_result) VALUES
  ('A15G G29A G32A A64G', 0.000605),
  ('C11A G59U', 0.0105);

Query: Find the measured self-cleavage kobs at 10000 uM GlcN6P of C11A G13U A53G C67U C68G and report it.
Response: 3.78e-05

Query: Find the measured self-cleavage kobs at 10000 uM GlcN6P of A14G C68A and report it.
Response: 7.77e-05

Query: Find the measured self-cleavage kobs at 10000 uM GlcN6P of G41C A53C and report it.
Response: 0.000115

Query: Find the measured self-cleavage kobs at 10000 uM GlcN6P of U31A G43C C68U and report it.
Response: 0.000192

Query: Find the measured self-cleavage kobs at 10000 uM GlcN6P of A52U U65G and report it.
Response: 4.93e-05

Provenance of the data: the supplement of paper PMC7125110
